# Test system: MDA-MB-468 breast
# Test Name: NCI-60 one-dose screen, 48 h
# Experimental Conditions: 10 µM unless noted
About 83,000 compounds went through this panel and 20% of them were active in at least one assay; those are over-represented in the sample as a whole. Active and inactive are the calls of the source. The calls were made as follows: active = growth percent below 10; inactive = the rest.
Thanks in advance; please answer with one of these: active, inactive

Reference set (4 entries):
[[record]]
molecule = "CC(C)(C)Nc1nc2c(OCCc3ccccc3)cccn2c1-c1ccc(Cl)cc1"
assay_target = "MDA-MB-468 breast"
category = "active"

[[record]]
molecule = "CSc1nc(N)c(CNC(C)c2ccccc2)c(=O)n1C (stereo not given)"
assay_target = "MDA-MB-468 breast"
category = "inactive"

[[record]]
molecule = "Cc1cccc(NC(=O)N/C(N)=N/c2nc(C)c(C)s2)c1"
assay_target = "MDA-MB-468 breast"
category = "inactive"

[[record]]
molecule = "C=C(C)[C@@H]1CC[C@]2(C(=O)NCC#CCN3CCN(C)CC3)CC[C@]3(C)[C@H](CC[C@@H]4[C@@](C)(CCC#N)[C@H](C(=C)C)CC[C@]43C)[C@@H]12"
assay_target = "MDA-MB-468 breast"
category = "inactive"


Give the logged outcome of this assay for the following molecule: CCC1CCc2nc3sc(C(=O)Nc4ccccc4C)c(N)c3cc2C1 (stereo not given)
active

Hey, just so you know, these numbers are from PubChem BioAssay (NCI).
